Molecular target: T1, biotinylated recombinant human CD70 (extracellular domain, Fc tag) (human, UniProt P32970 52-193, chemically biotinylated using 5-fold excess of Biotin)
T1 construct: Bought from ACROBiosystems; also called bio.hCD70; Bio.CD70; not shown: C-terminal Fc Tag of the bought protein (ACROBiosystems)
T1 sequence: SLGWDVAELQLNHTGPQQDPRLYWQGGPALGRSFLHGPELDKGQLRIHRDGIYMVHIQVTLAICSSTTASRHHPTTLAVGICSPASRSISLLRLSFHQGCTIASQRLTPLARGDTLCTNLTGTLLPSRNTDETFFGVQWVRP
Test: SPR (ProteOn XPR36), bio.CD70 immobilized on NLC chip, DARPin as analyte
pKd: −log10 of the molar value.
Quick rule: pKd of at least 8 means 1, below that means -1.

{"Binder": "DARPin® protein #9 (designed binder, Parent of DARPin protein #25) MRGSHHHHHHGSDLGKKLLQAARAGQLDEVRELLKAGADVNAKDQAGLTPLHIAAATGHLEIVEVLLKAGADVNAKDFSGLTPLHLAAFEGHLEIVEVLLKAGADVNAKDQHGQTPLHLAAWTGHLEIVEVLLKAGADVNAQDKSGKTPADLAARAGHQDIAEVLQKAA", "Qualitative Label": -1}
{"Binder": "DARPin® protein #8 (designed binder) MRGSHHHHHHGSDLGHKLLFAAVRGQDDEVRILLAAGADVNAKDTRGVTPLHLAASWGHLEIVEVLLKAGADVNAKDELGNTPLHLAATDGHLEIVEVLLKAGADVNAQDWVGKTPADLAAWWGHEDIAEVLQKAA", "Qualitative Label": 1}
{"Binder": "DARPin® protein #11 (designed binder) MRGSHHHHHHGSDLGIKLLYAAYFGQDDEVRILLAAGADVNAKDWLGKTPLHLAATEGHLEIVEVLLKAGADVNAKDEWGETPLHKAAQEGHLEIVEVLLKAGADVNAQDSAGYTPADLAAQVGHEDIAEVLQKAA", "Qualitative Label": 1}
{"Binder": "DARPin® protein #5 (designed binder) MRGSHHHHHHGSDLGFKLLQAALRGQLDEVRILLKAGADVNAKDQLGTTPLHLAAHYGHLEIVEVLLKAGADVNAKDVWGDTPLHLAAQHGHLEIVEVLLKAGADVNAQDRAGYTPADLAAQEGHEDIAEVLQKAA", "Qualitative Label": 1}

Consider the record given below.
Item DARPin® protein #7 (designed binder) MRGSHHHHHHGSDLGAKLLNAATVGQDDEVRILLAAGADVNAKDWSGQTPLHHAAYTGHLEIVEVLLKAGADVNAKDSWGWTPLHLAAYTGHLEIVEVLLKAGADVNAQDKEGSTPADLAAFHGHEDIAEVLQKAA with pKd of 8 or above?
1
